Exercise: state measured IC50 for each of the compounds provided.
Tested on: LS174T
test method notes: Cytotoxicity against human LS174T cells by MTS assay
Assay type: functional, cell-based

>>> result("CO[C@H]1/C=C\\C=C(/C)C(=O)NC2=CC(=O)C(NCCO[C@@H]3O[C@H](CO)[C@H](O)[C@H](O)[C@H]3O)=C(C[C@@H](C)C[C@H](OC)[C@H](O)[C@@H](C)/C=C(\\C)[C@@H]1OC(N)=O)C2=O")
"> 25 µM"

# input for lookup
Entry COC1=C2C[C@@H](C)C[C@H](OC)[C@H](O)[C@@H](C)/C=C(\C)[C@H](OC(N)=O)[C@@H](OC)/C=C\C=C(/C)C(=O)NC(=CC1=O)C2=O , IC50 reported as 0.45 µM
